System: HeLa cells
Test: Compound screen by flow cytometry: HeLa cell count as surrogate readout of cell viability (z-scoreHeLa); note: test concentration or dose not given here
Assay type: cell-based, human
Settings: PKIS compound screen, mean of 3 replicates
z-scoreHeLa mean for assorted molecules
Measurement kind: z-scoreHeLa mean

1. Cc1cn2c(=O)cc(N3CCOCC3)nc2n1Cc1cccc(Cl)c1Cl [GSK2334006A] = -0.32
2. O=C(Nc1n[nH]c2cc(-c3ccccc3)ccc12)C1CC1 = 0.28
3. Cc1cccc(Cn2ccn3c(=O)cc(N4CCOCC4)nc23)c1 [GSK2297542A] = 0.56
4. Cc1ccc(C(=O)Nc2ccc(Nc3ccnc4cc(-c5nccs5)ccc34)cc2O)cc1 [GW494702A] = 0.98

* * *

System: intracellular MRSA; note: test concentration or dose not given here
Format: cell-based, Staphylococcus aureus
Settings: compound screen, MRSA-infected HeLa cells, replicate 2
Field 'label' (enum: true (1) / false (0)). Set to true (1) when z-scoreMRSA+ rep 2 is strictly under -0.5; else false (0).

1) CNc1nc(-c2ccc3c(N)n[nH]c3c2)cc(N2C[C@@H](C(=O)NC3CCCCC3)OC[C@H]2C)n1 [GSK2375584A] = false (0)
2) CC(C)c1nc(-c2cccc(NS(=O)(=O)c3c(F)cccc3F)c2)c(-c2ccnc(Nc3ccc(N4CCOCC4)nc3)n2)s1 [GSK1723980B] = true (1)
3) Fc1cccc(COc2ccc(Nc3ncnc4sc(-c5ccc[nH]5)cc34)cc2Cl)c1 [GW707818B] = false (0)
4) CS(=O)(=O)CCN(CC#N)Cc1ccc(-c2ccc3ncnc(Nc4ccc(OCc5cccc(F)c5)c(Cl)c4)c3c2)o1 [GW616030X] = true (1)
5) CS(=O)(=O)CCNCc1nc(-c2ccc3ncnc(Nc4ccc(F)c(Cl)c4)c3c2)cs1 [GW461104A] = false (0)
6) CN(C)C(=O)O[C@@H]1CN[C@@H](C#Cc2cc3ncnc(Nc4ccc(OCc5cccc(F)c5)c(Cl)c4)c3s2)C1 [GSK238063A] = true (1)

* * *

Test system: HeLa cells
Assay: Compound screen by flow cytometry: HeLa cell count as surrogate readout of cell viability (z-scoreHeLa); note: test concentration or dose not given here
Assay type: cell-based, human
Settings: PKIS compound screen raw data, HeLa cell count, replicate 2
Measurement kind: cell count rep 2

1) Cc1ccc(NC(=O)c2ccnc(N3CCN(C)CC3)c2)cc1-c1ccc(C(=O)NCC2CC2)cc1 [GW775604X] = 17919
2) Cc1cc(N2Cc3ccccc3C2)nc(Nc2ccc(S(=O)(=O)N3CCOCC3)cc2)n1 [GSK1669917A] = 4564
3) Fc1cc(Cl)ccc1Nc1ccnc2cc(I)ccc12 [GW551191X] = 4849

* * *

z-scoreMRSA+ rep 2 for assorted compounds
Test system: intracellular MRSA; note: test concentration or dose not given here
Assay type: cell-based, Staphylococcus aureus
Details: compound screen, MRSA-infected HeLa cells, replicate 2
Measurement kind: z-scoreMRSA+ rep 2

1) NCCCC(NC(=O)c1cc(Br)c(-c2ccnc3[nH]ccc23)s1)c1ccccc1 (stereo not shown) [GSK1287544A] = 1.21
2) COc1cccc(CC(=O)N2CCc3cc(-c4cn(C)c5ncnc(N)c45)ccc32)c1 [GSK2608899A] = 0.70
3) O=S(=O)(c1cccc(F)c1)c1ccc(Nc2ncnc3cc(Br)sc23)cc1Cl [GSK306886A] = 0.10
4) COC(=O)Nc1nc2ccc(Oc3ccc(NC(=O)Nc4cc(C(F)(F)F)ccc4F)cn3)cc2[nH]1 [GW681170A] = -0.44
5) CS(=O)(=O)Cc1ccc(Nc2nccc(-c3c(-c4cccc(NC(=O)C5CCCCC5)c4)nn4ncccc34)n2)cc1 [GSK350559A] = -1.63
6) Cc1n[nH]c2cc(Nc3ccnc(Nc4cccc(CN5CCOCC5)c4)n3)ccc12 [GW682569X] = 0.50
7) COc1ccc(Nc2nccc(NCCNC(=O)Nc3ccccc3F)n2)cc1 [GSK1379901A] = -0.39
8) Cc1ccc2c(c1)C(=NNc1ccc(S(N)(=O)=O)cc1)C(=O)N2 [GW275944X] = 0.27
9) Cc1cc(-c2ccnc(Nc3cccc(C#N)c3)n2)cc(C)c1O [GSK1440913A] = -0.34
10) Cn1cc(-c2ccc3c(c2)CCN3C(=O)Cc2cc(F)cc(C(F)(F)F)c2)c2c(N)ncnc21 [GSK2635225A] = 0.07
11) Cc1cccc(-c2nc(Nc3ccc4c(cnn4C)c3)c3ccccc3n2)n1 [GW876731X] = -0.0842
12) Cc1nnc(-c2ccc(C)c(-c3ccc(C(=O)Nc4ccc(NS(C)(=O)=O)cc4)cc3)c2)o1 [GW702865X] = 0.77
13) O=C(c1ccc(-c2cc(-c3c[nH]nc3-c3ccccn3)ccn2)cc1)N1CCCC1 [GW792479X] = 0.49
14) O=c1cc(N2CCOCC2)nc2n(Cc3cccc(Cl)c3)ccn12 [GSK2296823A] = -1.23
15) N#Cc1ccc(CCNc2nccc(-c3cccc(CN4CCNCC4)c3)n2)cc1 [GSK2137462A] = -1.37
16) O=C(Nc1n[nH]c2cc(-c3ccsc3)ccc12)C1CC1 = -0.10
17) CC(C(=O)NC1CCN(c2ccnc(Nc3ccc(F)cc3)n2)C1)c1ccc(Cl)cc1 (stereo not shown) [GSK1379713A] = 0.12
18) Cc1cc(N2Cc3ccccc3C2)nc(Nc2ccc(S(=O)(=O)N3CCOCC3)cc2)n1 [GSK1669917A] = -0.15
19) COC(=O)Nc1nc2ccc(Oc3ccc(NC(=O)Nc4cc(C(F)(F)F)ccc4Cl)cc3)cc2[nH]1 [GW697465A] = -0.59
20) Fc1cccc(COc2ccc(Nc3ncnc4cc(-c5ccc[nH]5)sc34)cc2Cl)c1 [GW693881A] = 0.44
21) CS(=O)(=O)CCNCc1ccc(-c2ccc3ncnc(Nc4ccc(OCc5ccccc5)c(Br)c4)c3c2)o1 [GW580496A] = -2.51
22) Cn1cc(-c2ccc3c(c2)CCN3C(=O)Cc2cc(F)cc(F)c2F)c2c(N)ncnc21 [GSK2634140A] = 0.99
23) COc1cc(Nc2ncc(-c3ccccc3)o2)cc(OC)c1OC [GW627512B] = -0.47
24) O=C(Nc1n[nH]c2cc(-c3cccc(F)c3F)ccc12)C1CC1 = -0.22
25) COc1ccc2[nH]c3c4[nH]c5ccc(OC)cc5c4c4c(c3c2c1)C(=O)NC4=O [GW296115X] = -3.91

# credit: paper PMC10999543
